assay.comment: self-splicing fitness, log relative to wild type (ln ratio); higher = more splicing; Tetrahymena group I intron in knt gene, E. coli kanamycin selection, DiMSum; sequences stand for … in CUCUCU…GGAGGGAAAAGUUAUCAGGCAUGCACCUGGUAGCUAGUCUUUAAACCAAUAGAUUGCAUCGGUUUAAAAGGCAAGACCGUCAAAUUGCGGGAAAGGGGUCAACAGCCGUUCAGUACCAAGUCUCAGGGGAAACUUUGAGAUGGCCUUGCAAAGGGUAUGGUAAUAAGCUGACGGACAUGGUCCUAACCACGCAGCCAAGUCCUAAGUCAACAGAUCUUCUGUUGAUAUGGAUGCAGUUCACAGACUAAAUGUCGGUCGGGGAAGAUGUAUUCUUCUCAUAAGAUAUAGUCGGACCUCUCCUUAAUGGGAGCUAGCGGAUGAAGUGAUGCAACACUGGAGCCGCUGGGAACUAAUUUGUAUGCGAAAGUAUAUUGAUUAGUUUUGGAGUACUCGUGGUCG;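 note: selection with 25 µg/mL kanamycin versus none on LB agar overnight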
measurement.conditions: 30 °C
Recorded self-splicing fitness (ln) for the following sequences
// no unit string in output, number only

1. UAGGAGCAAUAUUACGUAUG: -3.04
2. GGCUAGCAAUAUUACGUCAA: -1.34
3. AGGUAGCAAUAUUACGACCC: -2.38
4. GCCCAGCAAUAUUACGCAGG: -3.19

The reported self-splicing fitness (ln) of the sequence UGCUAGCAAUAUUACGCAUG was -3.03

The reported self-splicing fitness (ln) of the sequence CCACAGCAAUAUUACGGAUU was -3.49

The reported self-splicing fitness (ln) of the sequence CACAAGCAAUAUUACGUUCU was -2.84

The reported self-splicing fitness (ln) of the sequence CAACAGCAAUAUUACGUGAU was -2.64

The reported self-splicing fitness (ln) of the sequence CACCAGCAAUAUUACGUCCU was -3.31

The reported self-splicing fitness (ln) of the sequence ACUCAGCAAUAUUACGCCGC was -2.78

The reported self-splicing fitness (ln) of the sequence GCCGAGCAAUAUUACGUCUG was -3.36

The reported self-splicing fitness (ln) of the sequence AGGGAGCAAUAUUACGUACG was -3.78

The reported self-splicing fitness (ln) of the sequence GCCUAGCAAUAUUACGCAAA was -0.846
